Please provide measured normalized growth for the entries that follow.
# protocol: chemical genetic growth profiling, strain panel (AID 1159580);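 also: tested at 20 µM; growth read once vehicle control cultures reached saturation at 30 °C; 1 = growth at the plate median or of vehicle wells; lower values mean less growth of the strain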
# experimentalParameters: S. cerevisiae deletion strains, growth OD, locus YLR384C, strain iki3, stronger effect = lower value
About 2,000 (36%) of roughly 5,500 compounds were called active. Roughly 18% stayed inconclusive and do not appear here. The list shows a part of the results.
Give bare numbers.

Cc1cc(CC(=O)O)n(C)c1C(=O)c1ccc(Cl)cc1 | 1.04
Clc1ccc(CSC(Cn2ccnc2)c2ccc(Cl)cc2Cl)cc1 (configuration not stated) | 0.0593

For each of the items listed, what is its normalized growth?
1. Cc1cc(/C=C/c2ccc3cc(N(C)C)ccc3[n+]2C)c(C)n1-c1ccccc1
2. CC1CCC(NC(=O)N(CCCl)N=O)CC1 (configuration not stated)
3. O=C1CCCN1CC#CCN1CCCC1
4. Clc1ccc(CO/N=C(/Cn2ccnc2)c2ccc(Cl)cc2Cl)c(Cl)c1
5. Clc1ccc(C(c2ccccc2Cl)C(Cl)Cl)cc1 (configuration not stated)
6. O=NN(CCCl)C(=O)NCCCl

[1, 0.956, 1.03, 0.0679, 0.97, 0.96]

---

# protocol: chemical genetic growth profiling, strain panel (AID 1159580);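 also: tested at 20 µM; growth read once vehicle control cultures reached saturation at 30 °C; 1 = growth at the plate median or of vehicle wells; lower values mean less growth of the strain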
# experimentalParameters: S. cerevisiae deletion strains, growth OD, locus YNL307C, strain MCK1, stronger effect = lower value
Among all 5,500 compounds or so, about 2,000 (36%) were called active. Not shown: some 18% with an inconclusive outcome. This is one part of the list. Where a SMILES comes first, the peptide text is derived from it.
Please provide measured normalized growth for the entries that follow.
Give bare numbers.

Completed entries (count: 5):
CC(=O)N[C@@H](CCC(=O)O)C(=O)O | 1.02
CC1CCC(NC(=O)N(CCCl)N=O)CC1 (configuration not stated) | 0.89
CC(=O)OCC(=O)[C@@]1(O)CCC2C3CCC4=CC(=O)C=CC4(C)C3[C@@H](O)C[C@@]21C (some centres not stated) | 1.02
C=C[C@@]1(C)CC(=O)[C@@]2(O)[C@](C)(O1)[C@@H](OC(C)=O)[C@@H](O)C1C(C)(C)CC[C@H](O)[C@@]12C (some centres not stated) | 0.996
C[C@]12C=CC(=O)C=C1CCC1C2[C@@H](O)C[C@@]2(C)C1CC[C@]2(O)C(=O)CO (some centres not stated) | 0.979

For each of the items listed, what is its normalized growth?
1. Oc1c(Cl)cc(Cl)c(Cl)c1Cc1c(O)c(Cl)cc(Cl)c1Cl
2. CCCCCCCCCCCC(=O)OCC(COP(=O)(O)OCC(O)COP(=O)(O)OCC(COC(=O)CCCCCCCCCCC)OC(=O)CCCCCCCCCCC)OC(=O)CCCCCCCCCCC (configuration not stated)
3. CC(=O)O[C@]1(C)CC[C@@]23CC1C(C)(C)[C@@H]2CC[C@H]3C
4. c1ccc2c(CC3=NCCN3)cccc2c1
5. Cc1cccc(C)c1NC(=O)C1CCCCN1C (configuration not stated)
6. NCCCCCC(=O)O
7. O=NN(CCCl)C(=O)NCCCl

[0.0665, 1.02, 1.01, 1.03, 1.02, 0.998, 0.96]

For each of the items listed, what is its normalized growth?
1. COC(=O)[C@@H]1OC(=O)C2OC23[C@@]1(C)CCC1[C@@]2(C)CCC(=O)C(C)(C)C2C[C@@H](OC(C)=O)[C@]13C (some centres not stated)
2. COc1ccc2oc(-c3ccccc3)c(OC)c(=O)c2c1

[0.995, 0.29]

For each of the items listed, what is its normalized growth?
1. CC(=O)N[C@@H](CC(=O)O)C(=O)N[C@@H](CCC(=O)O)C(=O)O (Ac-Asp-Glu-OH)
2. NCCCCC(=O)O
3. CN(C)CCC(c1ccccc1)c1ccccn1 (configuration not stated)
4. CCCn1c(=O)c2[nH]c(C3CCCC3)nc2n(CCC)c1=O
5. O=C(O)CCCCCCCC(=O)O
6. CCC(=O)OC1[C@@H]2CC3=C4CC(=O)O[C@@H](c5ccoc5)[C@]4(C)CCC3[C@@](C)(C2=O)[C@@H](CC(=O)OC)C1(C)C (some centres not stated)
7. COc1cc(OC)c2c(=O)cc(-c3ccccc3)oc2c1

1. 0.988
2. 0.987
3. 1.01
4. 0.97
5. 0.992
6. 1.01
7. 0.533

May I ask what normalized growth has been recorded for C[C@@H]1CC[C@H]2C(C)(C)C3CC12CC[C@@]3(C)O (some centres not stated) ?
0.977

---

Please provide measured normalized growth for the entries that follow.
# protocol: chemical genetic growth profiling, strain panel (AID 1159580);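 also: tested at 20 µM; growth read once vehicle control cultures reached saturation at 30 °C; 1 = growth at the plate median or of vehicle wells; lower values mean less growth of the strain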
# experimentalParameters: S. cerevisiae deletion strains, growth OD, locus YJL092W, strain hpr5, stronger effect = lower value
Out of some 5,500 compounds screened, about 2,000 (36%) were called active. Roughly 18% stayed inconclusive and do not appear here. The list shows a part of the results.
Answers are plain numbers.

Completed entries (count: 3):
NCC[C@@H](O)C(=O)N[C@@H]1C[C@H](N)[C@@H](O[C@H]2O[C@H](CN)[C@@H](O)[C@H](O)[C@H]2O)[C@H](O)[C@H]1O[C@H]1O[C@H](CO)[C@@H](O)[C@H](N)C1O (stereo partly specified) | 1.03
CC(O)(P(=O)(O)O)P(=O)(O)O | 0.987
C1N2CN3CN1CN(C2)C3 | 0.982

For each of the items listed, what is its normalized growth?
1. O=C(O)[C@@H](S)[C@@H](S)C(=O)O
2. COc1cc(NS(C)(=O)=O)ccc1Cc1c2ccccc2nc2ccccc12
3. CC12CCCCC1(Br)[N+](=O)N2[O-] (stereo unspecified)

1: 0.932; 2: 0.712; 3: 0.989

For each of the items listed, what is its normalized growth?
1. C=C1C(=O)[C@]23[C@H](O)[C@H]1CC[C@H]2[C@@]12CO[C@]3(O)[C@H](O)[C@@H]1C(C)(C)CC[C@@H]2O
2. Cc1ccc(C(=O)c2ccc(CC(=O)O)n2C)cc1
3. COP(=S)(OC)Oc1ccc([N+](=O)[O-])cc1
4. Cc1cc(CC(=O)O)n(C)c1C(=O)c1ccc(Cl)cc1
5. CC(C)=CC1C(C(=O)OCc2cccc(Oc3ccccc3)c2)C1(C)C (stereo unspecified)
6. COC[C@]12CN(C=O)C3[C@@H]4[C@H](OC)C1[C@]3(C1CC3(O)C(OC)C(O)C4(OC(C)=O)C1C3OC(=O)c1ccccc1)[C@@H](OC)C[C@H]2O (stereo partly specified)
7. O=C(O)CCC1NCC2CC1CN1CCCCC21 (stereo unspecified)
8. CC(=O)N[C@@H](CCC(=O)O)C(=O)O

1: 1.02; 2: 1.02; 3: 0.996; 4: 1.03; 5: 1.01; 6: 1.01; 7: 0.979; 8: 1.02

For each of the items listed, what is its normalized growth?
1. C=CCS(=O)C[C@H](N)C(=O)O (stereo partly specified)
2. CC1(C)N([O-])[N+](=O)C1(C)Br (stereo unspecified)
3. Clc1ccc(C(Cn2ccnc2)OCc2ccsc2Cl)c(Cl)c1 (stereo unspecified)
4. COP(=S)(OC)Oc1ccc(Sc2ccc(OP(=S)(OC)OC)cc2)cc1
5. COC1C=CC23c4cc5c(cc4CN(CC2O)[C@@H]3C1)OCO5 (stereo partly specified)
6. COc1cc(C)c2c(=O)cc(-c3ccccc3)oc2c1
7. COc1ccc(CCC(=O)c2c(O)cc(O[C@@H]3O[C@H](CO)C(O)[C@H](O)C3O[C@@H]3O[C@@H](C)[C@H](O)[C@@H](O)[C@H]3O)cc2O)cc1O (stereo partly specified)

0.999
0.963
0.058
1
0.948
0.923
1.01

---

# protocol: chemical genetic growth profiling, strain panel (AID 1159580);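 also: tested at 20 µM; growth read once vehicle control cultures reached saturation at 30 °C; 1 = growth at the plate median or of vehicle wells; lower values mean less growth of the strain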
# experimentalParameters: S. cerevisiae deletion strains, growth OD, locus YGR135W, strain pre9, stronger effect = lower value
About 2,000 (36%) of roughly 5,500 compounds were called active. Another 18% or so got no clear call; they are omitted. The list shows a part of the results.
In plain terms, low normalized growth, meaning strictly below 1, gives yes (1), and everything else gives no (0).

Just wondering, is normalized growth of CN[C@@H]1C(OC2[C@H](O[C@H]3[C@H](O)[C@@H](O)[C@H](N=C(N)N)[C@@H](O)[C@@H]3N=C(N)N)OC(C)[C@]2(O)CO)OC(CO)C(O)C1O (stereo partly specified) below 1?
yes (1)

Just wondering, is normalized growth of FC(F)(F)c1cccc(N2CCNCC2)c1 below 1?
yes (1)

Just wondering, is normalized growth of CC(=O)O[C@H]1C[C@@H](OC(C)=O)C(C)(C)C2C[C@@H](O)[C@]3(C)C(CC[C@@]4(C)[C@H](c5ccoc5)OC(=O)[C@H]5O[C@]543)[C@]21C (stereo partly specified) below 1?
no (0)

Just wondering, is normalized growth of CC(=O)O[C@H]1CC[C@@]2(C)C(C[C@@H](OC(C)=O)[C@]3(C)C2CC[C@@]2(C)[C@H](c4ccoc4)OC(=O)[C@H]4O[C@]423)C1(C)C (stereo partly specified) below 1?
no (0)
